system: HepG2; test: cell viability relative to DMSO; higher = less toxic; conditions: 72 h; 10 nM
METRIC NAME: cell viability (%)
Express your answer in %, writing the number without its unit.

Answered examples (10):
- COMPOUND: "COC[C@H](NC(=O)c1cnc(C)s1)C(=O)N[C@@H](COC)C(=O)N[C@@H](Cc1ccccc1)C(=O)[C@@]1(C)CO1 [oprozomib]"
  MEASURED ON: "HepG2"
  cell viability [%]: 99.3
- COMPOUND: "CN1CCN(Cc2ccc(-c3cnc4[nH]cc(-c5ccc6[nH]ccc6c5)c4c3)cc2)CC1 [URMC-099]"
  MEASURED ON: "HepG2"
  cell viability [%]: 89.8
- COMPOUND: "CC(C)(C)C#Cc1cc(N(C(=O)[C@H]2CC[C@H](C)CC2)[C@H]2CC[C@@H](O)CC2)c(C(=O)O)s1 [VX-222]"
  MEASURED ON: "HepG2"
  cell viability [%]: 101
- COMPOUND: "CCCCc1nc(-c2ccc(OCCCN(CC)CC)cc2)cn1-c1ccc(Oc2ccc(Cl)cc2)cc1 [azeliragon]"
  MEASURED ON: "HepG2"
  cell viability [%]: 94.8
- COMPOUND: "Cc1cc2c(C(C)C)c(O)c(O)c(C=O)c2c(O)c1-c1c(C)cc2c(C(C)C)c(O)c(O)c(C=O)c2c1O [gossypol]"
  MEASURED ON: "HepG2"
  cell viability [%]: 96.3
- COMPOUND: "O=C(Nc1cccnc1)N1CCC(Cc2cccc(Oc3ccc(C(F)(F)F)cn3)c2)CC1 [PF-3845]"
  MEASURED ON: "HepG2"
  cell viability [%]: 102
- COMPOUND: "CC(C)(C)NC(=O)[C@@H]1C[C@@H]2CCCC[C@@H]2CN1C[C@@H](O)[C@H](Cc1ccccc1)NC(=O)[C@H](CC(N)=O)NC(=O)c1ccc2ccccc2n1 [saquinavir]"
  MEASURED ON: "HepG2"
  cell viability [%]: 90.1
- COMPOUND: "OCc1ccccc1O [salicyl-alcohol]"
  MEASURED ON: "HepG2"
  cell viability [%]: 98.2
- COMPOUND: "COc1cc2c(cc1OC)-c1c(C)c3ccc(OC)c(OC)c3c[n+]1CC2 [dehydrocorydaline]"
  MEASURED ON: "HepG2"
  cell viability [%]: 99.4
- COMPOUND: "COc1ccc(C(=O)NCc2cccnc2)cc1C(=O)NCc1cccnc1 [picotamide]"
  MEASURED ON: "HepG2"
  cell viability [%]: 99.5

Turning now to a further record.
Prompt: Looking for the measured cell viability of O=C(Nc1ccccc1)OCC(CN1CCCCC1)OC(=O)Nc1ccccc1 (configuration not stated) [diperodon] , can you help?
Response: 97.8
